target-desc: Acetylcholinesterase (Bos taurus)
pIC50: −log10 of the molar value.
Label scheme for pIC50: lower than 9 is 0.0, 9 and above is 1.0.

Inquiry: # bool: pIC50 of CC1=CC2Cc3nc4cc(Cl)ccc4c(NCCCCCCCCNc4c5c(nc6cc(Cl)ccc46)CCCC5)c3C(C1)C2 (stereo not given) >= 9
Reply text: 0.0

More entries:
Inquiry: # bool: pIC50 of CCC1=CC2Cc3nc4ccccc4c(NCCCCCCCCNc4c5c(nc6ccccc46)CCCC5)c3C(C1)C2 (stereo not given) >= 9
Reply text: 0.0

Inquiry: # bool: pIC50 of CC1=C[C@@H]2Cc3nc4cc(Cl)ccc4c(NCCCN(C)CCCCNc4c5c(nc6ccccc46)CCCC5)c3[C@H](C1)C2 >= 9
Reply text: 1.0

Inquiry: # bool: pIC50 of CC1=CC2Cc3nc4cc(Cl)ccc4c(NCCCCCCCNc4c5c(nc6ccccc46)CCCC5)c3C(C1)C2 (stereo not given) >= 9
Reply text: 1.0

* * *

Notes on pIC50 obtained with Acetylcholinesterase (Homo sapiens, UniProt P22303).
Sequence (P22303 whole entry): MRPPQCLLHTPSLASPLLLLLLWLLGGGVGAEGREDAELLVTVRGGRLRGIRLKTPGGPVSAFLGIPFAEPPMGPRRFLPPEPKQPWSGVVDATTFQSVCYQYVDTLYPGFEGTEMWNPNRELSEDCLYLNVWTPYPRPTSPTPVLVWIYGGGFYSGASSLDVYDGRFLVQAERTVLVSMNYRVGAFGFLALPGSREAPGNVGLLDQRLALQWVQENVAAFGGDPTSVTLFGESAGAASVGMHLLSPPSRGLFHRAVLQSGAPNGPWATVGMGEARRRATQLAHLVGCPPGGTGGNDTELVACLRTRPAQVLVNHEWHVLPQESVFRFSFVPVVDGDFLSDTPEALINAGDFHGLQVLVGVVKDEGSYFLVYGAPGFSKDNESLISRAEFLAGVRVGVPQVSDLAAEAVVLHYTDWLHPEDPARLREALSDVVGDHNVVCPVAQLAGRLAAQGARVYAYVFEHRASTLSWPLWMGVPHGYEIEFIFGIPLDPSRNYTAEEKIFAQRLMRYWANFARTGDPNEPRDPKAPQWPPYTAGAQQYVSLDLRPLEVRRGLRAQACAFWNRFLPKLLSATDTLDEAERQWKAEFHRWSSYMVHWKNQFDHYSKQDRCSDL
Give bare numbers, as −log10 of the molar value.

// solved cases for pIC50 follow
Inquiry: What value of pIC50 has been reported for the following compound? CC1=C[C@@H]2Cc3nc4cc(Cl)ccc4c(NCCCN(C)CCCCNc4c5c(nc6ccccc46)CCCC5)c3[C@H](C1)C2
Reply text: 9.49

Inquiry: What value of pIC50 has been reported for the following compound? CCC1=CC2Cc3nc4ccccc4c(NCCCCCCCCNc4c5c(nc6ccccc46)CCCC5)c3C(C1)C2 (centres undefined)
Reply text: 9.09

Inquiry: What value of pIC50 has been reported for the following compound? CC1=CC2Cc3nc4cc(Cl)ccc4c(NCCCCCCNc4c5c(nc6cc(Cl)ccc46)CCCC5)c3C(C1)C2 (centres undefined)
Reply text: 9.35

Inquiry: What value of pIC50 has been reported for the following compound? CC1=CC2Cc3nc4cc(Cl)ccc4c(NCCCCCCCNc4c5c(nc6cc(Cl)ccc46)CCCC5)c3C(C1)C2 (centres undefined)
Reply text: 9.48

Inquiry: What value of pIC50 has been reported for the following compound? CC1=C[C@@H]2Cc3nc4cc(Cl)ccc4c(NCCCN(C)CCCCNc4c5c(nc6cc(Cl)ccc46)CCCC5)c3[C@H](C1)C2
Reply text: 9.54

For every item in the list below, what is its measured pIC50?
1. CC1=CC2Cc3nc4cc(Cl)ccc4c(NCCCCCCCCNc4c5c(nc6cc(Cl)ccc46)CCCC5)c3C(C1)C2 (centres undefined)
2. CC1=CC2Cc3nc4cc(Cl)ccc4c(NCCCCCCCCNc4c5c(nc6ccccc46)CCCC5)c3C(C1)C2 (centres undefined)
3. CC1=CC2Cc3nc4cc(Cl)ccc4c(NCCCCCCCNc4c5c(nc6ccccc46)CCCC5)c3C(C1)C2 (centres undefined)
4. CC1=CC2Cc3nc4cc(Cl)ccc4c(NCCCCCCNc4c5c(nc6ccccc46)CCCC5)c3C(C1)C2 (centres undefined)

Reply text:
1. 9.40
2. 9.48
3. 9.47
4. 9.30

* * *

target-desc: Acetylcholinesterase (Bos taurus, UniProt P23795)
Sequence (P23795 whole entry): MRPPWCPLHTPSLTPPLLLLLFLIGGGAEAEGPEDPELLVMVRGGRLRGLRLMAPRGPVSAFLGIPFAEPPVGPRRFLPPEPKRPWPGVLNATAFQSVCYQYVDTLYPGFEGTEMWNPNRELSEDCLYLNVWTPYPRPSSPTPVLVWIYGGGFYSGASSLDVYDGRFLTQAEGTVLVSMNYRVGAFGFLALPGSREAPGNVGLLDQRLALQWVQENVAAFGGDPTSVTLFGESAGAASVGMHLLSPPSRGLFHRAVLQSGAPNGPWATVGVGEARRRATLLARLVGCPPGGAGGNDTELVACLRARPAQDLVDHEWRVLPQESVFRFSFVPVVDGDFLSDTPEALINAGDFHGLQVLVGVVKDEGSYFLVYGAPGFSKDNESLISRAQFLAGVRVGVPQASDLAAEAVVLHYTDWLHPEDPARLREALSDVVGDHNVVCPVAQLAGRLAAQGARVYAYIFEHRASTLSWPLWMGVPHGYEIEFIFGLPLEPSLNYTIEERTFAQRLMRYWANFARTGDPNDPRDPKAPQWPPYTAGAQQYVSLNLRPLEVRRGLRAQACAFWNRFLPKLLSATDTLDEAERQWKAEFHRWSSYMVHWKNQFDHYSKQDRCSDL
protocol-description: Inhibitory concentration against Acetylcholinesterase from bovine erythrocytes after 45 min incubation
property-measured: IC50 (nM)
Give bare numbers, in nM.

For every item in the list below, what is its measured IC50?
1. CCC1=CC2Cc3nc4ccccc4c(NCCCCCCCCNc4c5c(nc6ccccc46)CCCC5)c3C(C1)C2 (centres undefined)
2. CC1=CC2Cc3nc4cc(Cl)ccc4c(NCCCCCCCCNc4c5c(nc6cc(Cl)ccc46)CCCC5)c3C(C1)C2 (centres undefined)

Reply text:
1: 1.67; 2: 1.31

For every item in the list below, what is its measured IC50?
1. CC1=CC2Cc3nc4cc(Cl)ccc4c(NCCCCCCNc4c5c(nc6cc(Cl)ccc46)CCCC5)c3C(C1)C2 (centres undefined)
2. CC1=CC2Cc3nc4cc(Cl)ccc4c(NCCCCCCCNc4c5c(nc6cc(Cl)ccc46)CCCC5)c3C(C1)C2 (centres undefined)
3. CC1=CC2Cc3nc4cc(Cl)ccc4c(NCCCCCCCNc4c5c(nc6ccccc46)CCCC5)c3C(C1)C2 (centres undefined)
4. CC1=CC2Cc3nc4cc(Cl)ccc4c(NCCCCCCNc4c5c(nc6ccccc46)CCCC5)c3C(C1)C2 (centres undefined)
5. CC1=C[C@@H]2Cc3nc4cc(Cl)ccc4c(NCCCN(C)CCCCNc4c5c(nc6ccccc46)CCCC5)c3[C@H](C1)C2
6. CC1=CC2Cc3nc4cc(Cl)ccc4c(NCCCCCCCCNc4c5c(nc6ccccc46)CCCC5)c3C(C1)C2 (centres undefined)
7. CC1=C[C@@H]2Cc3nc4cc(Cl)ccc4c(NCCCN(C)CCCCNc4c5c(nc6cc(Cl)ccc46)CCCC5)c3[C@H](C1)C2

Reply text:
[0.8, 1.6, 0.36, 0.27, 0.26, 0.65, 0.44]

* * *

target-desc: Cholinesterase (Homo sapiens, UniProt P06276)
Sequence (P06276 whole entry): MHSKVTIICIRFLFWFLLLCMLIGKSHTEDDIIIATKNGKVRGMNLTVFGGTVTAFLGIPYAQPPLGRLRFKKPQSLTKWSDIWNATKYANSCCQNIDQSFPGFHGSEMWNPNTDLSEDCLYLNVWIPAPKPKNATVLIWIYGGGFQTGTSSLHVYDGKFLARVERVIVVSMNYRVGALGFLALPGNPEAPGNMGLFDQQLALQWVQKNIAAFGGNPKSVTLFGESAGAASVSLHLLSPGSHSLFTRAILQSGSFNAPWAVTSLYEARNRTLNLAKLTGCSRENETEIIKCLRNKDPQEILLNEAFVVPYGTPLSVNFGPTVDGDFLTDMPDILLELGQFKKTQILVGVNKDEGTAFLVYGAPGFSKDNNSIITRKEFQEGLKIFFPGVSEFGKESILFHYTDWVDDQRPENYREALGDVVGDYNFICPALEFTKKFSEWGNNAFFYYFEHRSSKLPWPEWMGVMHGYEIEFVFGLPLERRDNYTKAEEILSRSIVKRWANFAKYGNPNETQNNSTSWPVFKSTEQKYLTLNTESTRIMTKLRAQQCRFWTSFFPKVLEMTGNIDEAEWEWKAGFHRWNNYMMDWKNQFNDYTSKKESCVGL
Label 1 when IC50 < 10 nM; otherwise 0.

Below, 3 compounds whose answers are already recorded.
Inquiry: Confirm or reject: IC50 of CC1=C[C@@H]2Cc3nc4cc(Cl)ccc4c(NCCCN(C)CCCCNc4c5c(nc6ccccc46)CCCC5)c3[C@H](C1)C2 lies strictly below 10 nM
Reply text: 0

Inquiry: Confirm or reject: IC50 of CC1=CC2Cc3nc4cc(Cl)ccc4c(NCCCCCCCCNc4c5c(nc6cc(Cl)ccc46)CCCC5)c3C(C1)C2 (centres undefined) lies strictly below 10 nM
Reply text: 1

Inquiry: Confirm or reject: IC50 of CC1=CC2Cc3nc4cc(Cl)ccc4c(NCCCCCCNc4c5c(nc6cc(Cl)ccc46)CCCC5)c3C(C1)C2 (centres undefined) lies strictly below 10 nM
Reply text: 0

Now consider the entry below.
Inquiry: Confirm or reject: IC50 of CC1=CC2Cc3nc4cc(Cl)ccc4c(NCCCCCCCNc4c5c(nc6ccccc46)CCCC5)c3C(C1)C2 (centres undefined) lies strictly below 10 nM
Reply text: 1

* * *

Notes on pIC50 obtained with Acetylcholinesterase (Bos taurus).
Give bare numbers, as −log10 of the molar value.

// solved cases for pIC50 follow
Inquiry: Could you share what pIC50 was measured for CC1=C[C@@H]2Cc3nc4cc(Cl)ccc4c(NCCCN(C)CCCCNc4c5c(nc6cc(Cl)ccc46)CCCC5)c3[C@H](C1)C2 , tested on Acetylcholinesterase (Bos taurus)?
Reply text: 9.27

Inquiry: Could you share what pIC50 was measured for CC1=CC2Cc3nc4cc(Cl)ccc4c(NCCCCCCNc4c5c(nc6ccccc46)CCCC5)c3C(C1)C2 (centres undefined) , tested on Acetylcholinesterase (Bos taurus)?
Reply text: 9.40

Inquiry: Could you share what pIC50 was measured for CC1=CC2Cc3nc4cc(Cl)ccc4c(NCCCCCCCNc4c5c(nc6cc(Cl)ccc46)CCCC5)c3C(C1)C2 (centres undefined) , tested on Acetylcholinesterase (Bos taurus)?
Reply text: 8.71

More entries:
Inquiry: Could you share what pIC50 was measured for CC1=CC2Cc3nc4cc(Cl)ccc4c(NCCCCCCCCNc4c5c(nc6ccccc46)CCCC5)c3C(C1)C2 (centres undefined) , tested on Acetylcholinesterase (Bos taurus)?
Reply text: 8.90

* * *

Notes on IC50 obtained with Cholinesterase (Homo sapiens).
Include the unit after the number when you answer.

// solved cases for IC50 follow
Inquiry: What value of IC50 has been reported for the following compound? CC1=CC2Cc3nc4cc(Cl)ccc4c(NCCCCCCCCNc4c5c(nc6ccccc46)CCCC5)c3C(C1)C2 (stereo not given)
Reply text: 4.74 nM

Inquiry: What value of IC50 has been reported for the following compound? CC1=CC2Cc3nc4cc(Cl)ccc4c(NCCCCCCNc4c5c(nc6ccccc46)CCCC5)c3C(C1)C2 (stereo not given)
Reply text: 7.69 nM

Inquiry: What value of IC50 has been reported for the following compound? CC1=C[C@@H]2Cc3nc4cc(Cl)ccc4c(NCCCN(C)CCCCNc4c5c(nc6cc(Cl)ccc46)CCCC5)c3[C@H](C1)C2
Reply text: 31.1 nM

Inquiry: What value of IC50 has been reported for the following compound? CCC1=CC2Cc3nc4ccccc4c(NCCCCCCCCNc4c5c(nc6ccccc46)CCCC5)c3C(C1)C2 (stereo not given)
Reply text: 5.55 nM

Next compound, please.
Inquiry: What value of IC50 has been reported for the following compound? CC1=CC2Cc3nc4cc(Cl)ccc4c(NCCCCCCCNc4c5c(nc6cc(Cl)ccc46)CCCC5)c3C(C1)C2 (stereo not given)
Reply text: 7.38 nM
